system: panel of breast cancer cell lines; test: Compound A with targeted agents and chemotherapies, 72-hour in vitro proliferation assays; type: cell-based; settings: HCC1569; compound A × partner, 72-hour proliferation
Counter-ions that a name gives are not always drawn.
Endpoint label: Synergy Score

Compound	Observed measurement
CC1(C)CCC(CN2CCN(c3ccc(C(=O)NS(=O)(=O)c4ccc(NCC5CCOCC5)c([N+](=O)[O-])c4)c(Oc4cnc5[nH]ccc5c4)c3)CC2)=C(c2ccc(Cl)cc2)C1	14.35
CC1(C)CCC(c2ccc(Cl)cc2)=C(CN2CCN(c3ccc(C(=O)NS(=O)(=O)c4ccc(N[C@H](CCN5CCOCC5)CSc5ccccc5)c(S(=O)(=O)C(F)(F)F)c4)cc3)CC2)C1	46.64
CO[C@H]1C[C@@H]2CC[C@@H](C)[C@@](O)(O2)C(=O)C(=O)N2CCCC[C@H]2C(=O)O[C@H]([C@H](C)C[C@@H]2CC[C@@H](OCCO)[C@H](OC)C2)CC(=O)[C@H](C)/C=C(\C)[C@@H](O)[C@@H](OC)C(=O)[C@H](C)C[C@H](C)/C=C/C=C/C=C/1C	3.45
CN(C)C(=O)c1cc2cnc(Nc3ccc(N4CCNCC4)cn3)nc2n1C1CCCC1	3.87
O=C(c1cc(Cc2n[nH]c(=O)c3ccccc23)ccc1F)N1CCN(C(=O)C2CC2)CC1	4.98
Nc1ccn([C@@H]2O[C@H](CO)[C@@H](O)C2(F)F)c(=O)n1 [Gemcitabine Hydrochloride]	5.52
